Biological target: NRAS WT (Homo sapiens, UniProt P01111+P62937)
Sequence (P01111 whole entry): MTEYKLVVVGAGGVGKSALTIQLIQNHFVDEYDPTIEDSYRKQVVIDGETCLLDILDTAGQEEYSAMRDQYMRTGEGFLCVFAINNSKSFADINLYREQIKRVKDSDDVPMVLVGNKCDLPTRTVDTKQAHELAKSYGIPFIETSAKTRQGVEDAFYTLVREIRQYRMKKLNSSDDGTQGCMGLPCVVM
Sequence (P62937 whole entry): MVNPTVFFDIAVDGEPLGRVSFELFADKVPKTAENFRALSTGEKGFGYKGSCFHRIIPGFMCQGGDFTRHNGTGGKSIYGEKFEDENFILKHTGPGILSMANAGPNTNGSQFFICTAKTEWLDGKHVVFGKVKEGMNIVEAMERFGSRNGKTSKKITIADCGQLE
Assay: Ras-Raf disruption / FRET / MOA assay (BRAF RBD)
Assay type: biochemical
Conditions: NRAS WT; read-out: NRAS WT FRET data IC50
metric: IC50

Observe how each entry below is paired with its result.
compound	metric	result
CCn1c(-c2cccnc2[C@H](C)OC)c2c3cc(ccc31)-c1cc(O)cc(c1)C[C@H](NC(=O)[C@H](C(C)C)N(C)C(=O)[C@H]1CCCN(C(=O)[C@H]3CN3)C1)C(=O)N1CCC[C@H](N1)C(=O)OCC(C)(C)C2	IC50	100 to 1000 nM
CCn1c(-c2cccnc2[C@H](C)OC)c2c3cc(ccc31)-c1csc(n1)C[C@H](NC(=O)[C@H](C(C)C)N(C)C(=O)N1CC(CN(C)C(=O)[C@@H]3CN3)C1)C(=O)N1CCC[C@H](N1)C(=O)OCC(C)(C)C2 (atropisomer, axis not shown)	IC50	10 to 100 nM
CCn1c(-c2cccnc2[C@H](C)OC)c2c3cc(ccc31)-c1csc(n1)C[C@H](NC(=O)[C@H](C(C)C)N(C)C(=O)N(C)CCN(C)C(=O)[C@H]1CN1)C(=O)N1CCC[C@H](N1)C(=O)OCC(C)(C)C2 (atropisomer, axis not shown)	IC50	100 to 1000 nM

Prompt line: Identify measured IC50 corresponding to CCn1c(-c2cccnc2[C@H](C)OC)c2c3cc(ccc31)-c1csc(n1)C[C@H](NC(=O)[C@H](C(C)C)N(C)C(=O)N1CCN(C(=O)[C@@H]3CN3)C[C@H]1C)C(=O)N1CCC[C@H](N1)C(=O)OCC(C)(C)C2
Response line: 10 to 100 nM

----------
Target: NRAS G12C (Homo sapiens, UniProt P01111+P62937, G12C)
Sequence (P01111 whole entry G12C): as the sequence (P01111 whole entry) above, with G12C counted along it
Sequence (P62937 whole entry): as the sequence (P62937 whole entry) above
Assay: Ras-Raf disruption / FRET / MOA assay (BRAF RBD)
Type: biochemical
Conditions: NRAS G12C FRET data IC50, NRAS G12C
Below, each entry is listed with its recorded IC50.

Observe how each entry below is paired with its result.
compound	result
CCn1c(-c2cccnc2[C@H](C)OC)c2c3cc(ccc31)-c1cc(O)cc(c1)C[C@H](NC(=O)[C@H](C(C)C)N(C)C(=O)CN(C)C(=O)[C@H]1CN1CCOC)C(=O)N1CCC[C@H](N1)C(=O)OCC(C)(C)C2 (some centres unmarked)	< 10 nM
CC[C@@H]1N[C@@H]1C(=O)N(C)CC(=O)N(C)[C@H](C(=O)N[C@H]1Cc2cc(O)cc(c2)-c2ccc3c(c2)c(c(-c2cccnc2[C@H](C)OC)n3CC)CC(C)(C)COC(=O)[C@@H]2CCCN(N2)C1=O)C(C)C	< 10 nM

Prompt line: Identify measured IC50 corresponding to CCn1c(-c2cccnc2[C@H](C)OC)c2c3cc(ccc31)-c1cc(O)cc(c1)C[C@H](NC(=O)[C@H](C(C)C)N(C)C(=O)CN(C)C(=O)[C@H]1CN1CCCOC(C)=O)C(=O)N1CCC[C@H](N1)C(=O)OCC(C)(C)C2 (some centres unmarked)
Response line: < 10 nM

Prompt line: Identify measured IC50 corresponding to CCn1c(-c2cccnc2[C@H](C)OC)c2c3cc(ccc31)-c1cc(O)cc(c1)C[C@H](NC(=O)[C@H](C1CCCC1)N(C)C(=O)CN(C)C(=O)[C@H]1N[C@H]1C1(OC)CC1)C(=O)N1CCC[C@H](N1)C(=O)OCC(C)(C)C2 (single isomer, unassigned)
Response line: 10 to 100 nM

Prompt line: Identify measured IC50 corresponding to CCn1c(-c2cccnc2[C@H](C)OC)c2c3cc(ccc31)-c1cc(O)cc(c1)C[C@H](NC(=O)[C@H](C(C)C)N(C)C(=O)CN(C)C(=O)[C@H]1N[C@@H]1C(F)(F)F)C(=O)N1CCC[C@H](N1)C(=O)OCC(C)(C)C2
Response line: 10 to 100 nM

----------
Target: KRAS Q61H (Homo sapiens, UniProt P01116+P62937, Q61H)
Sequence (P01116 1-169 isoform P01116-2 Q61H limits assumed): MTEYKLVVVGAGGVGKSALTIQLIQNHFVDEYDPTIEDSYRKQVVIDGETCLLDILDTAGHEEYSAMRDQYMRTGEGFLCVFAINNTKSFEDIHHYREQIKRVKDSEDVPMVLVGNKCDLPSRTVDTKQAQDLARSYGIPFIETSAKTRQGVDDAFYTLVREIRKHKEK
Sequence (P62937 whole entry): as the sequence (P62937 whole entry) above
Assay: Ras-Raf disruption / FRET / MOA assay (BRAF RBD)
Assay type: biochemical
Settings: KRAS Q61H; read-out: KRAS Q61H FRET data IC50
metric: IC50

Observe how each entry below is paired with its result.
compound	experimental system	IC50
CCn1c(-c2cccnc2[C@H](C)OC)c2c3cc(ccc31)-c1csc(n1)C[C@H](NC(=O)[C@H](C(C)C)N(C)C(=O)N1CC[C@H]1CN(C)C(=O)[C@@H]1CN1)C(=O)N1CCC[C@H](N1)C(=O)OCC(C)(C)C2 [Example 235]	KRAS Q61H (Homo sapiens, UniProt P01116+P62937, Q61H)	100 to 1000 nM
CCn1c(-c2cccnc2[C@H](C)OC)c2c3cc(ccc31)-c1csc(n1)C[C@H](NC(=O)[C@H](C(C)C)N(C)C(=O)N1CCN(C(=O)[C@@H]3CN3)C[C@H]1C)C(=O)N1CCC[C@H](N1)C(=O)OCC(C)(C)C2 [Example 302]	KRAS Q61H (Homo sapiens, UniProt P01116+P62937, Q61H)	10 to 100 nM
CCn1c(-c2cccnc2[C@H](C)OC)c2c3cc(ccc31)-c1cc(O)cc(c1)C[C@H](NC(=O)[C@H](C(C)C)N(C)C(=O)N1CC[C@@H](N(C)C(=O)[C@H]3CN3)C1)C(=O)N1CCC[C@H](N1)C(=O)OCC(C)(C)C2 (atropisomer, axis not shown) [Example 252]	KRAS Q61H (Homo sapiens, UniProt P01116+P62937, Q61H)	10 to 100 nM
CCn1c(-c2cccnc2[C@H](C)OC)c2c3cc(ccc31)-c1cc(O)cc(c1)C[C@H](NC(=O)[C@H](C(C)C)N(C)C(=O)[C@@H]1CCCN(C(=O)[C@@H]3CN3)C1)C(=O)N1CCC[C@H](N1)C(=O)OCC(C)(C)C2 [Example 238]	KRAS Q61H (Homo sapiens, UniProt P01116+P62937, Q61H)	10 to 100 nM
CCn1c(-c2cccnc2[C@H](C)OC)c2c3cc(ccc31)-c1csc(n1)C[C@H](NC(=O)[C@H](C(C)C)N(C)C(=O)N(C)[C@H]1CCN(C(=O)[C@@H]3CN3)C1)C(=O)N1CCC[C@H](N1)C(=O)OCC(C)(C)C2 (atropisomer, axis not shown) [Example 310]	KRAS Q61H (Homo sapiens, UniProt P01116+P62937, Q61H)	100 to 1000 nM
CCn1c(-c2cccnc2[C@H](C)OC)c2c3cc(ccc31)-c1cc(O)cc(c1)C[C@H](NC(=O)[C@H](C(C)C)N(C)C(=O)[C@H]1CCN(C(=O)C3(C)CO3)C1)C(=O)N1CCC[C@H](N1)C(=O)OCC(C)(C)C2 (stereo partly drawn) [Example 332]	KRAS Q61H (Homo sapiens, UniProt P01116+P62937, Q61H)	10 to 100 nM
CCn1c(-c2cccnc2[C@H](C)OC)c2c3cc(ccc31)-c1cc(O)cc(c1)C[C@H](NC(=O)[C@@H](COC1CN(C(=O)[C@H]3CN3)C1)C(C)C)C(=O)N1CCC[C@H](N1)C(=O)OCC(C)(C)C2 [Example 312]	KRAS Q61H (Homo sapiens, UniProt P01116+P62937, Q61H)	100 to 1000 nM
CCn1c(-c2cccnc2[C@H](C)OC)c2c3cc(ccc31)-c1cc(O)cc(c1)C[C@H](NC(=O)[C@H](C(C)C)N(C)C(=O)C1CCN(S(=O)(=O)[C@H]3CN3C)CC1)C(=O)N1CCC[C@H](N1)C(=O)OCC(C)(C)C2 (single isomer, unassigned) [Example 108]	KRAS Q61H (Homo sapiens, UniProt P01116+P62937, Q61H)	10 to 100 nM
CCn1c(-c2cccnc2[C@H](C)OC)c2c3cc(ccc31)-c1csc(n1)C[C@H](NC(=O)[C@H](C(C)C)N(C)C(=O)N1CCN(C(=O)[C@H]3CN3)[C@@H](C)C1)C(=O)N1CCC[C@H](N1)C(=O)OCC(C)(C)C2 [Example 297]	KRAS Q61H (Homo sapiens, UniProt P01116+P62937, Q61H)	10 to 100 nM
CCn1c(-c2cccnc2[C@H](C)OC)c2c3cc(ccc31)-c1cc(O)cc(c1)C[C@H](NC(=O)[C@H](C(C)C)N(C)C(=O)[C@@H]1CCN(C(=O)[C@H]3CN3)C1)C(=O)N1CCC[C@H](N1)C(=O)OCC(C)(C)C2 (atropisomer, axis not shown) [Example 186]	KRAS Q61H (Homo sapiens, UniProt P01116+P62937, Q61H)	10 to 100 nM

Prompt line: Identify measured IC50 corresponding to CCn1c(-c2cccnc2[C@H](C)OC)c2c3cc(ccc31)-c1cc(O)cc(c1)C[C@H](NC(=O)[C@H](C(C)C)N(C)C(=O)[C@@H]1CCN(C(=O)[C@@H]3CN3)[C@@H]1C)C(=O)N1CCC[C@H](N1)C(=O)OCC(C)(C)C2 (atropisomer, axis not shown) [Example 208]
Response line: 10 to 100 nM

Prompt line: Identify measured IC50 corresponding to CCn1c(-c2cccnc2[C@H](C)OC)c2c3cc(ccc31)-c1csc(n1)C[C@H](NC(=O)[C@H](C(C)C)N(C)C(=O)N(C)CC1CN(C(=O)[C@H]3CN3)C1)C(=O)N1CCC[C@H](N1)C(=O)OCC(C)(C)C2 (atropisomer, axis not shown) [Example 293]
Response line: 10 to 100 nM

Prompt line: Identify measured IC50 corresponding to CCn1c(-c2cccnc2[C@H](C)OC)c2c3cc(ccc31)-c1csc(n1)C[C@H](NC(=O)[C@H](C(C)C)N(C)C(=O)N1CC[C@H](N(C)C(=O)[C@H]3CN3)C1)C(=O)N1CCC[C@H](N1)C(=O)OCC(C)(C)C2 (atropisomer, axis not shown) [Example 228]
Response line: 10 to 100 nM

Prompt line: Identify measured IC50 corresponding to CCn1c(-c2cccnc2[C@H](C)OC)c2c3cc(ccc31)-c1cc(O)cc(c1)C[C@H](NC(=O)[C@H](C(C)C)N(C)C(=O)[C@H]1CCN(C(=O)C3CO3)C1)C(=O)N1CCC[C@H](N1)C(=O)OCC(C)(C)C2 (stereo partly drawn) [Example 330]
Response line: 10 to 100 nM

Prompt line: Identify measured IC50 corresponding to CCn1c(-c2cccnc2[C@H](C)OC)c2c3cc(ccc31)-c1csc(n1)C[C@H](NC(=O)[C@H](C(C)C)N(C)C(=O)N1CC[C@@H](N(C)C(=O)[C@@H]3CN3)C1)C(=O)N1CCC[C@H](N1)C(=O)OCC(C)(C)C2 (atropisomer, axis not shown) [Example 227]
Response line: 10 to 100 nM
